System: Expi293 cells
procedure details: CellTiter-Glo cell health (ATP levels) during cell association assay
Assay type: cell-based
experimental parameters: reflective of cell health, luminescence Tfinal (22 hours) / Tinitial
metric name: CellTiter-Glo fold change ± SD
Provide a numeric answer; units are not to be included.

Ask: # query: CellTiter-Glo fold change ± SD | item CCCC[C@H](NC(=O)[C@@H](NC(C)=O)C(C)C)C(=O)N[C@@H](CCC(N)=O)C(=O)N[C@]1(C)CCCCCCC=CCCC[C@@](C)(C(=O)N[C@@H](Cc2c[nH]cn2)C(=O)N[C@@H](Cc2ccc(O)cc2)C(=O)N[C@H](C(N)=O)C(C)C)NC(=O)[C@H]([C@@H](C)CC)NC(=O)[C@H](Cc2ccccc2)NC(=O)[C@H](C)NC(=O)[C@H](C)NC(=O)[C@H](CCC(=O)O)NC(=O)[C@H](Cc2ccc(O)cc2)NC1=O (single isomer, unassigned) [FP07864] | system: Expi293 cells
Result: 1.1

====

study target: CHIP (Homo sapiens, UniProt Q9UNE7)
Construct: N-term truncated CHIP (also known as STUB1, Uniprot ID: Q9UNE7, residues 23-303); made in house; host or cells: E. coli BL21 CodonPlus
Sequence (Q9UNE7 23-303): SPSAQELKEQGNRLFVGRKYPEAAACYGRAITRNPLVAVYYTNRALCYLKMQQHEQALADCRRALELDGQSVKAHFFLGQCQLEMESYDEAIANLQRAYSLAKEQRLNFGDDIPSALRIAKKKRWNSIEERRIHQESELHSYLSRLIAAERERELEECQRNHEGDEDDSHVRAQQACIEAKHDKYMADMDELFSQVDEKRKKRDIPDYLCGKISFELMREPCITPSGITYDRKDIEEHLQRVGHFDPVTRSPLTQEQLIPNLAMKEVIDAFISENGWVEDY
procedure details: Naive Library Presenter Screening (phage, NGS), CHIP
Type: binding
experimental parameters: CHIP target concentration 1000 nM, second column
Numbered stars: 1 amine (or outer) side, 2 acyl side, 3 side chain; on linkers, the order of the positions; unused ones are H or OH. Bridge positions count the residues as written; N and C are the ends. Ends that are not written are not given here. Phenylene(1,4-NHCOCH2)2 = O=C(C[*:1])Nc1ccc(NC(=O)C[*:2])cc1
In this scheme, each record receives a class according to its interaction data at Target Concentration 1000; the ranges are low: < 20; medium: ≥ 20 and < 200; high: ≥ 200

Example results:
residue_string="PCFEAWVMCEI (linker 2-9 via Phenylene(1,4-NHCOCH2)2 (inferred))" study_target="CHIP (Homo sapiens, UniProt Q9UNE7)" class_label=high
residue_string="ICYTAWLECE (linker 2-9 via Phenylene(1,4-NHCOCH2)2 (inferred))" study_target="CHIP (Homo sapiens, UniProt Q9UNE7)" class_label=low
residue_string="PCWNAWMVCSV (linker 2-9 via Phenylene(1,4-NHCOCH2)2 (inferred))" study_target="CHIP (Homo sapiens, UniProt Q9UNE7)" class_label=high
residue_string="PCWNAWLYCSN (linker 2-9 via Phenylene(1,4-NHCOCH2)2 (inferred))" study_target="CHIP (Homo sapiens, UniProt Q9UNE7)" class_label=medium

Ask: Returns: class label. Input: PCWEAWLWCSM (linker 2-9 via Phenylene(1,4-NHCOCH2)2 (inferred))
Result: medium

Ask: Lab log: PCYSAWITCES (linker 2-9 via Phenylene(1,4-NHCOCH2)2 (inferred)) — assign interaction data at Target Concentration 1000 category
Result: high

Ask: Please classify: ICYNAWFECE (linker 2-9 via Phenylene(1,4-NHCOCH2)2 (inferred))
Result: low

Ask: For this sequence, which bin applies? PCWDAWMLCTD (linker 2-9 via Phenylene(1,4-NHCOCH2)2 (inferred))
Result: high

Ask: Input ICYNAWLECA (linker 2-9 via Phenylene(1,4-NHCOCH2)2 (inferred)) ; output its category
Result: low

Ask: Sort into band: ICYNAWVECE (linker 2-9 via Phenylene(1,4-NHCOCH2)2 (inferred))
Result: medium

====

study target: RNF31 UBA domain (Homo sapiens)
Construct: RNF31 UBA domain protein (residues 480-639) with N-terminal Thioredoxin-TEV-6×his-yBBr-3C tags; Thioredoxin (N, cleaved yes); made in house; host or cells: E. coli BL21 (DE3) pLysS
Sequence (Q96EP0 480-639): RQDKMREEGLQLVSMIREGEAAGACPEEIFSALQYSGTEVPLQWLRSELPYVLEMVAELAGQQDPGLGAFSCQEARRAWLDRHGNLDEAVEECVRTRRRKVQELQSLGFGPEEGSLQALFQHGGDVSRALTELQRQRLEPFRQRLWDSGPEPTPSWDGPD
procedure details: Phage Library Screening with NGS, RNF31 UBA domain
Type: binding
experimental parameters: Target Concentration 100; no competitor
metric name: phage screen NGS read-out at Target Concentration 100
When you answer, write just the number.

Sample answers from the record:
residue_string=DPAFSACVYAAYMCNQD study_target="RNF31 UBA domain (Homo sapiens)" reported_measurement=1
residue_string=DPAFSTCVYAAIICNDT study_target="RNF31 UBA domain (Homo sapiens)" reported_measurement=7

Note: attention shifts to another entry.
Ask: # get_value(readout= phage screen NGS read-out at Target Concentration 100, system= RNF31 UBA domain (Homo sapiens)) for DPAEWICRMAAMNCLYQ (Ac-DPAEWICRMAAMNCLYQ-NH2; not fully specified (bridges); cysteine pairing not given here)
Result: 4

====

study target: CHIP (Homo sapiens, UniProt Q9UNE7)
Construct: N-term truncated CHIP (also known as STUB1, Uniprot ID: Q9UNE7, residues 23-303); made in house; host or cells: E. coli BL21 CodonPlus
Sequence (Q9UNE7 23-303): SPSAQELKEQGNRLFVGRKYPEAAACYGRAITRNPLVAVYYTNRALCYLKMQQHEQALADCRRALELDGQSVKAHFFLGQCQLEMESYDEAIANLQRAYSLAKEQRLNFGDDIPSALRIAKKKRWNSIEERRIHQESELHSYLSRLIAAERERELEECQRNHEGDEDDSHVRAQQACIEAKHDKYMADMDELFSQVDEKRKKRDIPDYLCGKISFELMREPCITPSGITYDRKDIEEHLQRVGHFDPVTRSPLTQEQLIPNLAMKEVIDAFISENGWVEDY
procedure details: Naive Library Presenter Screening (phage, NGS), CHIP
Format: binding
experimental parameters: CHIP target concentration 10 nM
Procedure: To conduct phage library screening, previously described procedures were utilized in accordance with the present disclosure. Next-generation sequencing was performed as described in accordance with the present disclosure. Hit ID and Clustering is performed according to a described procedure in accordance with the present disclosure.
Numbered stars: 1 amine (or outer) side, 2 acyl side, 3 side chain; on linkers, the order of the positions; unused ones are H or OH. Bridge positions count the residues as written; N and C are the ends. Ends that are not written are not given here. Phenylene(1,4-NHCOCH2)2 = O=C(C[*:1])Nc1ccc(NC(=O)C[*:2])cc1
interaction data at Target Concentration 10: recorded values
// return a plain number; no unit text

residue_string="ICYSAWLECE (linker 2-9 via Phenylene(1,4-NHCOCH2)2 (inferred))" reported_measurement=1
residue_string="PCWNAWLYCSN (linker 2-9 via Phenylene(1,4-NHCOCH2)2 (inferred))" reported_measurement=0
residue_string="PCWSAWLACEL (linker 2-9 via Phenylene(1,4-NHCOCH2)2 (inferred))" reported_measurement=0
residue_string="PCWEAWLWCSM (linker 2-9 via Phenylene(1,4-NHCOCH2)2 (inferred))" reported_measurement=0
residue_string="ICYNAWFECE (linker 2-9 via Phenylene(1,4-NHCOCH2)2 (inferred))" reported_measurement=0

Ask: Would you kindly share the measured interaction data at Target Concentration 10 for PCYSAWITCES (linker 2-9 via Phenylene(1,4-NHCOCH2)2 (inferred)) ?
Result: 0

Ask: Query (sequence): PCWDAWMLCTD (linker 2-9 via Phenylene(1,4-NHCOCH2)2 (inferred)) ; field requested: interaction data at Target Concentration 10
Result: 19

Ask: # interaction data at Target Concentration 10 lookup, item PCYSAWIVCSD (linker 2-9 via Phenylene(1,4-NHCOCH2)2 (inferred))
Result: 4

====

study target: RNF31 PUB domain (Homo sapiens, UniProt Q96EP0)
Construct: MBP-TEV (N, cleaved yes); made in house; host or cells: E. coli BL21 (DE3) pLysS
Sequence (Q96EP0 1-179): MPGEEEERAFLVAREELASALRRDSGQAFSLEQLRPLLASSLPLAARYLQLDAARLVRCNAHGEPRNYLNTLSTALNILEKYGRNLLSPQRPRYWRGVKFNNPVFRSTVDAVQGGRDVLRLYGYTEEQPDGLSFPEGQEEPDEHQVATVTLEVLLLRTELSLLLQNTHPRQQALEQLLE
procedure details: Phage Library Screening with NGS, RNF31 PUB domain
Assay type: binding
experimental parameters: RNF31 PUB domain clusters C41-C45; target concentration 1000, first column
Ends that are not written are not given here.
Assign class by Phage library screen NGS readout, Target Concentration 1000: not lower than 10 means true; lower than 10 means false.

Check out these entries, answers already filled in.
residue_string=DPAYWDCLYAAADCAFY study_target="RNF31 PUB domain (Homo sapiens, UniProt Q96EP0)" class_label=false
residue_string=DPAYEDCAWAALYCDMT study_target="RNF31 PUB domain (Homo sapiens, UniProt Q96EP0)" class_label=true
residue_string=DPAWNDCLYAAETCISW study_target="RNF31 PUB domain (Homo sapiens, UniProt Q96EP0)" class_label=true
residue_string=DPAYRDCDWAALYCDDF study_target="RNF31 PUB domain (Homo sapiens, UniProt Q96EP0)" class_label=true
residue_string=DPAYDWCMYAAYNCVED study_target="RNF31 PUB domain (Homo sapiens, UniProt Q96EP0)" class_label=true

Ask: Hi team, for DPAAWECHIAAFVCSTY , is the recorded Phage library screen NGS readout, Target Concentration 1000 at or above 10?
Result: false

Ask: Identify whether the reported Phage library screen NGS readout, Target Concentration 1000 of the following sequence is 10 or greater: DPAMQECMDAAIMCTYA
Result: true

Ask: Determine whether measured Phage library screen NGS readout, Target Concentration 1000 meets or exceeds 10 for DPAWMQCMYAAWDCNIE
Result: false

Ask: Determine whether measured Phage library screen NGS readout, Target Concentration 1000 meets or exceeds 10 for DPALWDCLYAADACITS (not fully specified; cysteine pairing not given here)
Result: false
